# Test system: Phosphatidyl inositol-specific phospholipase C
# assay.name: Phosphatidyl inositol-specific phospholipase C assay with sonicated human platelets
# Format: biochemical
# condition.description: Table I; Conc. 1.0 mM
# Method: A. Protocol--Phosphatidyl inositol-specific phospholipase C assays. […] An aliquot of sonicated human platelets, 5×10^9 /ml, is added; the reaction is stopped after 10 minutes with a chloroform/methanol/H2 O solution and the upper water phase is counted to detect water-soluble inositol counts. […]
Form field: % Inhibition (one value per entry).
Only the number, expressed in %, is required.

CCCCCCCC(=O)OCC(CCP(=O)(OC)OC1C(O)C(O)C(O)C(O)C1O)OC(=O)CCCCCCC (stereo not drawn)
72

Prompt: Item CCCCCCCCCC(=O)OCC(CCP(=O)(O)OC1C(O)C(O)C(O)C(O)C1O)OC(=O)CCCCCCCCC (stereo not drawn) has what recorded % Inhibition?
Completion: 68

Prompt: Okay, and CCCCCCCCCC(=O)OC(CCP(=O)(O)OC1C(O)C(O)C(O)C(O)C1O)COC(=O)Cc1ccc(-c2ccccc2)cc1 (stereo not drawn) ?
Completion: 75

Prompt: Item: CCCCCCCC(=O)OCC(CCP(=O)(O)OC1C(O)C(O)C(O)C(O)C1O)OC(=O)CCCCCCC (stereo not drawn)
Completion: 64

Prompt: Again, but for CCCCCCCCCCCCCCCC(=O)OCC(CCP(=O)(O)OC1C(O)C(O)C(O)C(O)C1O)OC(=O)CCCCCCCCCCCCCCC (stereo not drawn)
Completion: 84

Prompt: Now consider CCCCCCCCCC(=O)OC(CCP(=O)(O)OC1C(O)C(O)C(O)C(O)C1O)COC(=O)CCc1ccc(Oc2ccccc2)cc1 (stereo not drawn) and answer again.
Completion: 76
